Target: T1, 4H3277-bA
T1 chain: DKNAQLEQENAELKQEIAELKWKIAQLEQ
Assay: two-hybrid library CCNG1;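 also: natural log of median RNA to DNA barcode read ratio; higher means stronger binding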
# interaction score annotations
Enter the number alone.

Take a look at these entries with their results.
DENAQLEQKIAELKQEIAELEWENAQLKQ [4H1348-bA]	-0.24
DKIAQLKQKNAELKQKNAELEWEIAQLEQ [4H3057-bA]	-1.24
DKIAQLEQKNAELEQEIAELEWKIAQLKQ [4H2438-bA]	-1.45
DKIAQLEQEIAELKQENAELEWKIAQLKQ [4H2134-bA]	0.0479
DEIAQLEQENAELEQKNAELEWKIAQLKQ [4H182-bA]	-0.0929

Input line: Name the recorded interaction score for DKIAQLKQEIAELEQENAELKWENAQLKQ [4H2588-bA] .
Output line: -0.938

Input line: Which interaction score is listed for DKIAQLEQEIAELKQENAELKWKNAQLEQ [4H2143-bA] ?
Output line: -0.971
